Values were extracted from patent US20110136911A1.

- Test system: LPS-stimulated RAW 267.4 cells
- TEST DETAILS: TNF secretion from LPS-stimulated RAW macrophages (ELISA)
- Type: cell-based
- EXPERIMENTAL SETUP: RAW267.4; 0.1 μg/ml LPS, 30 minutes preincubation, supernatants after 16 h; read-out: IC50, inhibition of the release of TNFα
EXPERIMENTAL ENDPOINT: IC50
Field: value (include unit after the number)

# input compound: N[C@H](Cc1cc(I)c(Oc2cc(I)c(O)c(I)c2)c(I)c1)C(=O)O ; wanted: its IC50
1000 nM
